Tested on: souris mâle
EXPERIMENTAL_PROTOCOL: Toxicity, DL-0
Type: in vivo
CONDITION_SET: i.p.
READOUT_TYPE: DL-O

[
  {
    "COMPOUND": "CCNC(=O)C[S+]([O-])C(c1ccccc1)c1ccccc1 (stereo not drawn)",
    "VALUE_MEASURED": "supérieure à 512 mg/kg"
  },
  {
    "COMPOUND": "CC(C)NC(=O)C[S+]([O-])C(c1ccccc1)c1ccccc1 (stereo not drawn)",
    "VALUE_MEASURED": "supérieure à 512 mg/kg"
  }
]

* * *

EXPERIMENTAL_PROTOCOL: Solubility
CONDITION_SET: water
READOUT_TYPE: solubility

[
  {
    "COMPOUND": "CNC(=O)C[S+]([O-])C(c1ccccc1)c1ccccc1 (centres unmarked) [Exemple 1, N-méthyl-benzhydrylsulfinylacétamide]",
    "solubility": "< 1000 µg/mL"
  }
]

Here is another compound to look at.
For O=C(C[S+]([O-])C(c1ccccc1)c1ccccc1)N1CCCCC1 (centres unmarked) [Exemple 5, N-(benzhydrylsulfinylacétyl)-pipéridine] the compound record lists solubility as < 1000 µg/mL
